# assay_system: Scavenger receptor class B member 1 (Mus musculus) (UniProt Q61009)
# Sequence (Q61009 whole entry, looked up): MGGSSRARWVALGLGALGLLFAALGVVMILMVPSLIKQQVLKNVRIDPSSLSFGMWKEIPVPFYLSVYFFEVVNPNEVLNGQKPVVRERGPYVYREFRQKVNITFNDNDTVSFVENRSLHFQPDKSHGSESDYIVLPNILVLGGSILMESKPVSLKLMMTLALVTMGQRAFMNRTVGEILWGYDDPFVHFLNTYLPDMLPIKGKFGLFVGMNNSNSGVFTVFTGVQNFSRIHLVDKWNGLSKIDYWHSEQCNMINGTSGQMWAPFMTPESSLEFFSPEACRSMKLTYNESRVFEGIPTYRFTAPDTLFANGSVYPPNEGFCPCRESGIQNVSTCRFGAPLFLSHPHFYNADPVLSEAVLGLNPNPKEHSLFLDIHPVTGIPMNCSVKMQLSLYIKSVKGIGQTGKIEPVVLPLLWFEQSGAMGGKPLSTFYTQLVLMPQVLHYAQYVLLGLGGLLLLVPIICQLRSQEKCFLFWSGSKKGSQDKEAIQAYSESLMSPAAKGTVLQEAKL
# test_name: SR-BI-mediated DiI-HDL uptake inhibitors, dose response, ldlA[mSR-BI] CHO cells, powder samples, set 3 (AID 588553)
# condition_info: DiI-HDL uptake fluorescence, 3 h
Entries annotated with measured AC50

CCC(=O)N1CCc2cc(-c3csc(N(C)C(=O)c4cc(OC)cc(OC)c4)n3)ccc21 = 0.18 µM
COc1ccc(-c2nc(CC(=O)N(C3CCCCC3)C(C)C(=O)NC3CCCC3)cs2)cc1OC (configuration not stated) = 6.28 µM
COc1cc(OC)cc(C(=O)Nc2nc(-c3ccc4c(c3)CCN4C(C)=O)cs2)c1 = 0.0174 µM
CC(C(=O)NC1CCCC1)N(C(=O)Cn1nnc(-c2ccc3c(c2)OCO3)n1)C1CCCCC1 (configuration not stated) = 0.017 µM

Proceed to the following item.
Prompt: Report AC50 for COc1cc(OC)cc(C(=O)Nc2nc(-c3ccc4c(c3)CCN4)cs2)c1 please.
Completion: 0.113 µM

The reported measurements were obtained from PubChem BioAssay AID588553.
